- assay_target: T1, AFP158/HLA-A*02:01 complex (human)
- T1 construct: flowed as analyte in SPR
- experimental_protocol: SPR, crude scFv captured, pMHC analyte;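 note: pMHC analyte injected at three concentrations, association phase of one hundred seconds, then running buffer for dissociation, rates fitted from both curves, KD derived from the rates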
endpoint_name: pKd
Conceptually, pKd converts a concentration in mol/L into minus its log10.

The following binders have reported results that may help.
AS170036 VL1VH1-57M98Q (scFv, also called 15-AS170036 VL1VH1-57M98Q) scFv: QSALTQPRSVSGSPGQSVTISCAGTSSDVGSENYVSWYQQHPGKAPKLMIYQVNKRASGVPDRFSGSKSGNTASLTISGLQAEDEADYYCASYRSSDQNIVFGGGTKLTVLGGGGSGGGGSGGGGSEVQLVESGGGLVQPGGSLRLSCAASGFTFSSYAMSWVRQAPGKGLEWVSTINSGTGMPYYADSVKGRFTISRDNSKNTLYLQMNSLRAEDTAVYYCAKNFFDGSWFLGPPAMDYWGQGTLVTVSSHHHHHH ... 7.55
AS170036 VL1VH1-56Y108S (scFv, also called 18-AS170036 VL1VH1-56Y108S) scFv: QSALTQPRSVSGSPGQSVTISCAGTSSDVGSENYVSWYQQHPGKAPKLMIYQVNKRASGVPDRFSGSKSGNTASLTISGLQAEDEADYYCASYRSSDHNIVFGGGTKLTVLGGGGSGGGGSGGGGSEVQLVESGGGLVQPGGSLRLSCAASGFTFSSYAMSWVRQAPGKGLEWVSTINSGTYSPYYADSVKGRFTISRDNSKNTLYLQMNSLRAEDTAVYYCAKNFFDGSWFLSPPAMDYWGQGTLVTVSSHHHHHH ... 7.92
AS170036 VL1VH1-57H108D (scFv, also called 23-AS170036 VL1VH1-57H108D) scFv: QSALTQPRSVSGSPGQSVTISCAGTSSDVGSENYVSWYQQHPGKAPKLMIYQVNKRASGVPDRFSGSKSGNTASLTISGLQAEDEADYYCASYRSSDHNIVFGGGTKLTVLGGGGSGGGGSGGGGSEVQLVESGGGLVQPGGSLRLSCAASGFTFSSYAMSWVRQAPGKGLEWVSTINSGTGHPYYADSVKGRFTISRDNSKNTLYLQMNSLRAEDTAVYYCAKNFFDGSWFLDPPAMDYWGQGTLVTVSSHHHHHH ... 8.02

q: Give recorded pKd. AS170036 VL1VH1-56Y98Q (scFv, also called 03-AS170036 VL1VH1-56Y98Q) scFv: QSALTQPRSVSGSPGQSVTISCAGTSSDVGSENYVSWYQQHPGKAPKLMIYQVNKRASGVPDRFSGSKSGNTASLTISGLQAEDEADYYCASYRSSDQNIVFGGGTKLTVLGGGGSGGGGSGGGGSEVQLVESGGGLVQPGGSLRLSCAASGFTFSSYAMSWVRQAPGKGLEWVSTINSGTYSPYYADSVKGRFTISRDNSKNTLYLQMNSLRAEDTAVYYCAKNFFDGSWFLGPPAMDYWGQGTLVTVSSHHHHHH
a: 8.06

q: Using the record for AS170036 VL1VH1-57M98I (scFv, also called 14-AS170036 VL1VH1-57M98I) scFv: QSALTQPRSVSGSPGQSVTISCAGTSSDVGSENYVSWYQQHPGKAPKLMIYQVNKRASGVPDRFSGSKSGNTASLTISGLQAEDEADYYCASYRSSDINIVFGGGTKLTVLGGGGSGGGGSGGGGSEVQLVESGGGLVQPGGSLRLSCAASGFTFSSYAMSWVRQAPGKGLEWVSTINSGTGMPYYADSVKGRFTISRDNSKNTLYLQMNSLRAEDTAVYYCAKNFFDGSWFLGPPAMDYWGQGTLVTVSSHHHHHH , state its measured pKd.
a: 7.40
